What self-cleavage was measured for each of the following?
B1: CPEB3 Ribozyme (parent)
chain: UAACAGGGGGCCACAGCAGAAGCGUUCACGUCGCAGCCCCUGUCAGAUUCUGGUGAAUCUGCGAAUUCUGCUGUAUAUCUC

# Variants of: B1
# test description: self-cleavage, relative activity (ratio to wild type); higher = more cleavage; in vitro, sequencing
Please reply with the number alone, leaving off any unit.

Data point: G46A A47U ; self-cleavage = 0.24

Data point: A20U C38U ; self-cleavage = 0.42

Data point: A15C U48C ; self-cleavage = 0.47

Data point: U48A U72A ; self-cleavage = 0.22

Data point: A5G U72C ; self-cleavage = 0.77

Data point: A47U C59A ; self-cleavage = 0.17

Data point: U26G C59A ; self-cleavage = 0.16

Data point: G63A U69A ; self-cleavage = 0.5

Data point: U49A U72G ; self-cleavage = 0.4

Data point: C14A C32U ; self-cleavage = 0.21

Data point: A21U U48C ; self-cleavage = 0.27

Data point: G24A C40U ; self-cleavage = 0.1

Data point: A13G C14A ; self-cleavage = 0.88

Data point: A2U U54G ; self-cleavage = 0.77

Data point: U58C G63A ; self-cleavage = 0.51

Data point: U54A G73A ; self-cleavage = 1.25

Data point: U72C U76A ; self-cleavage = 1.23

Data point: G24C A35G ; self-cleavage = 0.1

Data point: C37U U41C ; self-cleavage = 0.89

Data point: U26A C40A ; self-cleavage = 0.25

Data point: U41G U58C ; self-cleavage = 0.18

Data point: U54C A77C ; self-cleavage = 0.87
